Attribution: patent US7910559B2

# Tested on: human IL-1β
# PROCEDURE_SUMMARY: Inhibition of IL-1β production by stimulated human peripheral blood leukocytes in vitro (ELISA)
# Format: cell-based
# CONDITION_SET: Homo sapiens, Leukocyte, PBL, zymosan stimulation, compound 50 μM; read-out: Percentage of inhibition of IL-1β production
ASSAY_READOUT: inhibition at 50 µM (%)
Respond numerically; units are % and should not be typed.

>>> quantitative_result("CC[C@H]1OC(=O)[C@H](C)[C@@H](OC(=O)CCN2CCN(CCN(CC)CC)CC2)[C@H](C)[C@@H](O[C@@H]2O[C@H](C)C[C@H](N(C)C)[C@H]2O)[C@](C)(OC)C[C@@H](C)C(=O)N[C@H](C)[C@@H](O)[C@]1(C)O")
76

The molecule CC[C@H]1OC(=O)[C@H](C)[C@@H](OC(=O)CCN2CCCN(CCCN3CCCC3)CC2)[C@H](C)[C@@H](O[C@@H]2O[C@H](C)C[C@H](N(C)C)[C@H]2O)[C@](C)(OC)C[C@@H](C)C(=O)N[C@H](C)[C@@H](O)[C@]1(C)O on human IL-1β: inhibition at 50 µM was 100

###

# Test system: human TNF-α
# PROCEDURE_SUMMARY: Inhibition of TNF-α production by stimulated human peripheral blood leukocytes in vitro (ELISA)
# Format: cell-based
# CONDITION_SET: Homo sapiens, Leukocyte, PBL, LPS stimulation, compound 10 μM; read-out: Percentage of inhibition of TNF-α production
ASSAY_READOUT: inhibition at 10 µM
Quick note: number first, unit second.

Recorded result, CC[C@H]1OC(=O)[C@H](C)[C@@H](OC(=O)CCN(CC)CC)[C@H](C)[C@@H](O[C@@H]2O[C@H](C)C[C@H](N(C)C)C2O)[C@](C)(O)C[C@@H](C)CN(C)[C@H](C)[C@@H](O)[C@]1(C)O (stereo in doubt) [Example 12] , inhibition at 10 µM: 22%

Recorded result, CC[C@H]1OC(=O)[C@H](C)[C@@H](O[C@H]2C[C@@](C)(OC)[C@@H](O)[C@H](C)O2)[C@H](C)[C@@H](O[C@@H]2O[C@H](C)C[C@H](N(C)C)[C@H]2O)[C@](C)(OC)C[C@@H](C)C(=O)[C@H](C)[C@@H](O)[C@]1(C)O [clarithromycin, reference compound] , inhibition at 10 µM: 0%

Recorded result, CC[C@H]1OC(=O)[C@H](C)[C@@H](OC(=O)CCN(CC)CC)[C@H](C)[C@@H](O[C@@H]2O[C@H](C)C[C@H](N(C)C)[C@H]2O)[C@](C)(OC)C[C@@H](C)C(=O)[C@H](C)[C@@H](O)[C@]1(C)O [Example 5] , inhibition at 10 µM: 3%

Recorded result, CC[C@H]1OC(=O)[C@H](C)[C@@H](OC(=O)CCN2CCN(CCN(C)C)CC2)[C@H](C)[C@@H](O[C@@H]2O[C@H](C)C[C@H](N(C)C)[C@H]2O)[C@](C)(OC)C[C@@H](C)C(=O)N[C@H](C)[C@@H](O)[C@]1(C)O [Example 19] , inhibition at 10 µM: 11%

Recorded result, CC[C@H]1OC(=O)[C@H](C)[C@@H](OC(=O)CCN(C)CCO)[C@H](C)[C@@H](O[C@@H]2O[C@H](C)C[C@H](N(C)C)[C@H]2O)[C@](C)(OC)C[C@@H](C)C(=O)N[C@H](C)[C@@H](O)[C@]1(C)O [Example 23] , inhibition at 10 µM: 0%

Recorded result, CC[C@H]1OC(=O)[C@H](C)[C@@H](OC(=O)CCN2CCCN(CCCN3CCCC3)CC2)[C@H](C)[C@@H](O[C@@H]2O[C@H](C)C[C@H](N(C)C)[C@H]2O)[C@](C)(OC)C[C@@H](C)C(=O)N[C@H](C)[C@@H](O)[C@]1(C)O [Example 24] , inhibition at 10 µM: 0%

###

# System: human IL-8
# PROCEDURE_SUMMARY: Inhibition of IL-8 production by stimulated human peripheral blood leukocytes in vitro (ELISA)
# Type: cell-based
# CONDITION_SET: Homo sapiens, Leukocyte, PBL, zymosan stimulation, compound 10 μM; read-out: Percentage of inhibition of IL-8 production
ASSAY_READOUT: inhibition at 10 µM
Quick note: number first, unit second.

Examples with answers:
>>> result("CC[C@H]1OC(=O)[C@H](C)[C@@H](OC(=O)CCN2CCCN(CCCN3CCCC3)CC2)[C@H](C)[C@@H](O[C@@H]2O[C@H](C)C[C@H](N(C)C)[C@H]2O)[C@](C)(OC)C[C@@H](C)C(=O)N[C@H](C)[C@@H](O)[C@]1(C)O [Example 24]")
"0%"
>>> result("CC[C@H]1OC(=O)[C@H](C)[C@@H](O[C@H]2C[C@@](C)(OC)[C@@H](O)[C@H](C)O2)[C@H](C)[C@@H](O[C@@H]2O[C@H](C)C[C@H](N(C)C)[C@H]2O)[C@](C)(OC)C[C@@H](C)C(=O)[C@H](C)[C@@H](O)[C@]1(C)O [clarithromycin, reference compound]")
"0%"
>>> result("CC[C@H]1OC(=O)[C@H](C)[C@@H](OC(=O)CCN2CCN(CCN(C)C)CC2)[C@H](C)[C@@H](O[C@@H]2O[C@H](C)C[C@H](N(C)C)[C@H]2O)[C@](C)(OC)C[C@@H](C)C(=O)N[C@H](C)[C@@H](O)[C@]1(C)O [Example 19]")
"9%"

Shift focus to the following entry.
Recorded result, CC[C@H]1OC(=O)[C@H](C)[C@@H](OC(=O)CCN(CC)CC)[C@H](C)[C@@H](O[C@@H]2O[C@H](C)C[C@H](NC)[C@@H]2O)[C@](C)(OC)C[C@@H](C)C(=O)N[C@H](C)[C@@H](O)[C@]1(C)O [Example 10] , inhibition at 10 µM: 6%

###

Listing: inhibition at 50 µM of selected compounds
# System: human IL-6
# PROCEDURE_SUMMARY: Inhibition of IL-6 production by stimulated human peripheral blood leukocytes in vitro (ELISA)
# Type: cell-based
# CONDITION_SET: Homo sapiens, Leukocyte, PBL, PMA stimulation, compound 50 μM; read-out: Percentage of inhibition of IL-6 production
Respond numerically; units are % and should not be typed.

>>> quantitative_result("CC[C@H]1OC(=O)[C@H](C)[C@@H](OC(=O)CCN(CC)CC)[C@H](C)[C@@H](O[C@@H]2O[C@H](C)C[C@H](N(C)C)[C@H]2O)[C@](C)(OC)C[C@@H](C)C(=O)[C@H](C)[C@@H](O)[C@]1(C)O [Example 5]")
100
>>> quantitative_result("CC[C@H]1OC(=O)[C@H](C)[C@@H](O[C@H]2C[C@@](C)(OC)[C@@H](O)[C@H](C)O2)[C@H](C)[C@@H](O[C@@H]2O[C@H](C)C[C@H](N(C)C)[C@H]2O)[C@](C)(O)C[C@@H](C)CN(C)[C@H](C)[C@@H](O)[C@]1(C)O [azithromycin, reference compound]")
0
>>> quantitative_result("CC[C@H]1OC(=O)[C@H](C)[C@@H](OC(=O)CCN(CC)CC)[C@H](C)[C@@H](O[C@@H]2O[C@H](C)C[C@H](NC)[C@@H]2O)[C@](C)(OC)C[C@@H](C)C(=O)N[C@H](C)[C@@H](O)[C@]1(C)O [Example 10]")
92
>>> quantitative_result("CC[C@H]1OC(=O)[C@H](C)[C@@H](OC(=O)CCN2CCN(CCN(C)C)CC2)[C@H](C)[C@@H](O[C@@H]2O[C@H](C)C[C@H](N(C)C)[C@H]2O)[C@](C)(OC)C[C@@H](C)C(=O)N[C@H](C)[C@@H](O)[C@]1(C)O [Example 19]")
61

Recorded result, CC[C@H]1OC(=O)[C@H](C)[C@@H](OC(=O)CCN2CCCN(CCCN3CCCC3)CC2)[C@H](C)[C@@H](O[C@@H]2O[C@H](C)C[C@H](N(C)C)[C@H]2O)[C@](C)(OC)C[C@@H](C)C(=O)N[C@H](C)[C@@H](O)[C@]1(C)O [Example 24] , inhibition at 50 µM: 89

Recorded result, CC[C@H]1OC(=O)[C@H](C)[C@@H](OC(=O)CCN(CC)CC)[C@H](C)[C@@H](O[C@@H]2O[C@H](C)C[C@H](N(C)C)C2O)[C@](C)(O)C[C@@H](C)CN(C)[C@H](C)[C@@H](O)[C@]1(C)O (stereo in doubt) [Example 12] , inhibition at 50 µM: 93

Recorded result, CC[C@H]1OC(=O)[C@H](C)[C@@H](OC(=O)CCN2CCN(CCN(CC)CC)CC2)[C@H](C)[C@@H](O[C@@H]2O[C@H](C)C[C@H](N(C)C)[C@H]2O)[C@](C)(OC)C[C@@H](C)C(=O)N[C@H](C)[C@@H](O)[C@]1(C)O [Example 18] , inhibition at 50 µM: 47

Recorded result, CC[C@H]1OC(=O)[C@H](C)[C@@H](O[C@H]2C[C@@](C)(OC)[C@@H](O)[C@H](C)O2)[C@H](C)[C@@H](O[C@@H]2O[C@H](C)C[C@H](N(C)C)[C@H]2O)[C@](C)(OC)C[C@@H](C)C(=O)[C@H](C)[C@@H](O)[C@]1(C)O [clarithromycin, reference compound] , inhibition at 50 µM: 0
